// provenance: paper PMC11726183

Experiment: MTT cytotoxicity assay on normal breast epithelial cell line MCF-10A (control)
Assay type: cell-based, human
Conditions: human; MTT, 48 h; concentration for the value not given (6.5-50 μM tested)
ENDPOINT: viability at 48 h (%)

>  <TEST SMILES>
O=C(Cc1ccc(F)cc1F)N/N=C1/C(=O)N(Cc2ccccc2)c2ccccc21

>  <MEASUREMENT>
85.7

$$$$
>  <TEST SMILES>
O=C(N/N=C1\C(=O)N(Cc2ccccc2)c2ccccc21)c1cccnc1

>  <MEASUREMENT>
85.1

$$$$
>  <TEST SMILES>
Cc1ccccc1C(=O)N/N=C1/C(=O)N(Cc2ccccc2)c2ccccc21

>  <MEASUREMENT>
84.3

$$$$
>  <TEST SMILES>
O=C(N/N=C1/C(=O)N(Cc2ccccc2)c2ccccc21)c1cccc2ccccc12

>  <MEASUREMENT>
79.1

$$$$
>  <TEST SMILES>
O=C(N/N=C1/C(=O)N(Cc2ccccc2)c2ccccc21)c1ccccc1Cl

>  <MEASUREMENT>
77.6

$$$$
